Cited source for all entries: the OligoGym collection

- TESTED_TARGET: Tau
- PROCEDURE_DETAILS: rat primary cortical neurons, FLIPR, 25 uM ASO
Bases are written 5' to 3'; sugars and linkages follow in the same order, as letters with counts (s phosphorothioate, o phosphodiester; PS: all linkages phosphorothioate). The collection does not say whether C is 5-methylated. l = locked nucleic acid (LNA); d = 2'-deoxy (DNA)
ATTRIBUTE_MEASURED: calcium oscillation score

In: What value of calcium oscillation score on Tau does CTAATTACATTTTTTCTT (sugars l4 d10 l4, PS) have?
Out: 63.9 % of control

In: And the next one, ATTTATTCCATTGCTCT (sugars l2 d11 l4, PS) ?
Out: 42.4 % of control

In: And the next one, CAGATTTTACTTCCACCT (sugars l2 d14 l2, PS) ?
Out: 44.7 % of control

In: And the next one, CCTAAAGTCCCAGGTC (sugars l3 d10 l3, PS) ?
Out: 62.9 % of control
